Values compiled from patent US8916526B2.

system: Methicillin-resistant S. aureus OM584; experiment: In vitro infectivity assay (MIC), Exp. Ex. 2-1; type: cell-based, Staphylococcus aureus; conditions: Gram-positive; microdilution, MIC after 24 h
Binary call on MIC MRSA OM584 with cut-off 2 µg/mL: strictly below means criterion met, and equality or higher means criterion not met.

>>> answerlabel("O=C(CCc1ccc(F)cc1)OC[C@H]1O[C@@H](Oc2c(-c3ccc(O)c(O)c3)oc3cc(O)cc(O)c3c2=O)[C@H](OC(=O)CCc2ccc(F)cc2)[C@@H](O)[C@H]1O [Compound 14m]")
"criterion not met"
>>> answerlabel("O=C(CCCCc1ccc(F)cc1)OC[C@H]1O[C@@H](Oc2c(-c3ccc(O)c(O)c3)oc3cc(O)cc(O)c3c2=O)[C@H](OC(=O)CCCCc2ccc(F)cc2)[C@@H](O)[C@H]1O [Compound 14k]")
"criterion not met"
>>> answerlabel("O=C(Cc1ccc(F)cc1)OC[C@H]1O[C@@H](Oc2c(-c3ccc(O)c(O)c3)oc3cc(O)cc(O)c3c2=O)[C@H](OC(=O)Cc2ccc(F)cc2)[C@@H](O)[C@H]1O [Compound 14e]")
"criterion met"
>>> answerlabel("O=C(CCc1ccc(F)cc1)OC[C@H]1O[C@@H](Oc2c(-c3ccc(O)c(O)c3)oc3cc(O)cc(O)c3c2=O)[C@H](OC(=O)CCc2ccc(F)cc2)[C@@H](O)[C@H]1O [Compound 14i]")
"criterion met"

---

biological target: DNA gyrase of Escherichia coli (Escherichia coli, UniProt P0AES4+P0AES6); construct: purchased John Innes Enterprises #K0001; assay: DNA gyrase inhibition (supercoiling assay kit), Exp. Ex. 1-2; type: biochemical; settings: E. coli DNA gyrase supercoiling, relaxed pBR322, 37° C., 30 minutes; read-out: Gyrase inhibitory activity IC50 (converted)
quantityKind: IC50 (µM)

>>> endpointresult("CCCc1ccc(C(=O)O[C@H]2[C@H](Oc3c(-c4ccc(O)c(O)c4)oc4cc(O)cc(O)c4c3=O)O[C@H](CO)[C@@H](O)[C@@H]2OC(=O)c2ccc(CCC)cc2)cc1 [Compound 15f]")
13.2
>>> endpointresult("CCn1cc(C(=O)O)c(=O)c2cc(F)c(N3CCNCC3)cc21 [Norfloxacin, norfloxacin, reference compound]")
0.908
>>> endpointresult("O=c1c(O)c(-c2ccc(O)c(O)c2)oc2cc(O)cc(O)c12 [Quercetin, quercetin, reference compound]")
2.61
>>> endpointresult("CCOc1ccc(C(=O)O[C@H]2[C@H](Oc3c(-c4ccc(O)c(O)c4)oc4cc(O)cc(O)c4c3=O)O[C@H](CO)[C@@H](O)[C@@H]2OC(=O)c2ccc(OCC)cc2)cc1 [Compound 15e]")
10.8

---

target: E. coli DNA gyrase (Escherichia coli, UniProt P0AES4+P0AES6); construct: purchased John Innes Enterprises #K0001; assay: DNA gyrase inhibition (supercoiling kit), Exp. Ex. 2-2; format: biochemical
IC50: recorded values
quantityKind: IC50 (nM)

>>> endpointresult("CCn1cc(C(=O)O)c(=O)c2cc(F)c(N3CCNCC3)cc21 [Norfloxacin, norfloxacin, reference compound]")
90
>>> endpointresult("O=c1c(O)c(-c2ccc(O)c(O)c2)oc2cc(O)cc(O)c12 [Quercetin, quercetin, reference compound]")
140
>>> endpointresult("CCCc1ccc(C(=O)OC[C@H]2O[C@@H](Oc3c(-c4ccc(O)c(O)c4)oc4cc(O)cc(O)c4c3=O)[C@H](OC(=O)c3ccc(CCC)cc3)[C@@H](O)[C@H]2O)cc1 [Compound 14b]")
770
>>> endpointresult("CCOc1ccc(C(=O)OC[C@H]2O[C@@H](Oc3c(-c4ccc(O)c(O)c4)oc4cc(O)cc(O)c4c3=O)[C@H](OC(=O)c3ccc(OCC)cc3)[C@@H](O)[C@H]2O)cc1 [Compound 14a]")
430
